# Study target: Yes (h) (Homo sapiens, UniProt P07947)
# Sequence (P07947 whole entry): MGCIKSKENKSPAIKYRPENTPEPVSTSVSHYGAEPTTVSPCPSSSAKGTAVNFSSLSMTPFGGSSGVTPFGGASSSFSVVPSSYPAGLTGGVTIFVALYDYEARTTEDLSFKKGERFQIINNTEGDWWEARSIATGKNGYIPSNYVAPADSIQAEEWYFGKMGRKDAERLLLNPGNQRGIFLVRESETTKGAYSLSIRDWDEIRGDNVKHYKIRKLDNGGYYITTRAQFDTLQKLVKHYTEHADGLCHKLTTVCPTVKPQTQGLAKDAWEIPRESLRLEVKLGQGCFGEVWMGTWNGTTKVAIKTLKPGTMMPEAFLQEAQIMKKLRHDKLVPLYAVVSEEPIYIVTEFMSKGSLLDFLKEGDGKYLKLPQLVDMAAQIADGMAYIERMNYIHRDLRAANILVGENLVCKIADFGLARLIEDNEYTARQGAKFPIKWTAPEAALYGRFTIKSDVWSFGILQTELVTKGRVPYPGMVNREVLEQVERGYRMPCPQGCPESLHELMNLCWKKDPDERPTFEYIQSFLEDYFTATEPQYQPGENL
# Protocol details: Kinase profiling, glass-fiber filter technology: Yes
# Assay type: biochemical
# Experimental context: test concentration of 10^−6 M; read-out: Yes inhibition score
Experimental endpoint: inhibition at 1 µM

* CN1CCCCCOc2cc3c(ncnc3cc2OC[C@H](O)CNCCOCCO)Nc2cc(Cl)c(F)cc2C1 [Compound 17] | > 80%
* COc1cc2ncnc3c2cc1OCCCN(CCN1CCOCC1)C(=O)CNC(=O)Cc1ccc(Cl)cc1N3 [Compound 15] | 60 to 80%
* CC(=O)NCCNCCCOc1cc2ncnc3c2cc1OCCCCCN(C)Cc1ccc(Br)cc1N3 [Compound 13] | > 80%
* COc1cc2ncnc3c2cc1OCCN(CCN1CCOCC1)C(=O)CNC(=O)Cc1ccc(Cl)cc1N3 [Compound 1] | 30 to 60%
* CN1CCCCCOc2cc3c(ncnc3cc2OC[C@@H](O)CN2CCS(=O)(=O)CC2)Nc2cc(Br)ccc2C1 [Compound 12] | > 80%
* COCCOCCOc1cc2ncnc3c2cc1OCCCCCN(C)Cc1ccc(Br)cc1N3 [Int. 43] | > 80%
* CN1CCCCCOc2cc3c(ncnc3cc2OCCCNC(=O)OC(C)(C)C)Nc2cc(Br)ccc2C1 [Compound 11] | > 80%
* CC(=O)N(CCO)CCCOc1cc2ncnc3c2cc1OCCCNC(=O)[C@H](C)N(C)Cc1cc(F)c(Cl)cc1N3 [Compound 5] | > 80%

* * *

# Study target: cSRC (h) (Homo sapiens, UniProt P12931)
# Sequence (P12931 whole entry): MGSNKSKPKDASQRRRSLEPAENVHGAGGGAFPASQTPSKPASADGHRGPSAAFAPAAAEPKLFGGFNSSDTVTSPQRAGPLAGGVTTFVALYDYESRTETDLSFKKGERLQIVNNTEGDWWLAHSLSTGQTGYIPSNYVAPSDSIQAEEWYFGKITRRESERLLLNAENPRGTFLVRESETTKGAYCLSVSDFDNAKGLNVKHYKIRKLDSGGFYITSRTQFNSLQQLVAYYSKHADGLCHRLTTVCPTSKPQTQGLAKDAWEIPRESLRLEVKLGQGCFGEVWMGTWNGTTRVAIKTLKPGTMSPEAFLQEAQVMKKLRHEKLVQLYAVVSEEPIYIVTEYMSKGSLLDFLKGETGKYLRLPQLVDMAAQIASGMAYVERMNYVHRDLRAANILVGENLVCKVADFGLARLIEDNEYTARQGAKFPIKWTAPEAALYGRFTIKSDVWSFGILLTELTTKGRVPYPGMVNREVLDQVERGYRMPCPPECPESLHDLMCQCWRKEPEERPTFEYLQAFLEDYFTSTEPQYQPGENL
# Protocol details: Kinase profiling, glass-fiber filter technology: cSRC
# Format: biochemical
# Experimental context: test concentration of 10^−6 M; read-out: cSRC inhibition score
Experimental endpoint: inhibition at 1 µM

- C[C@H]1C(=O)NCCCOc2cc3c(ncnc3cc2OCCCN2CCN(C(=O)OC(C)(C)C)CC2)Nc2cc(Cl)c(F)cc2CN1C: > 80%
- CN1CCCCCOc2cc3c(ncnc3cc2OCCCNC(=O)OC(C)(C)C)Nc2cc(Br)ccc2C1: 60 to 80%
- CC(=O)NCCN1CCN(CCCOc2cc3ncnc4c3cc2OCCCNC(=O)[C@H](C)N(C)Cc2cc(F)c(Cl)cc2N4)CC1: > 80%
- CN1CCCCCOc2cc3c(ncnc3cc2OC[C@@H](O)CN2CCS(=O)(=O)CC2)Nc2cc(Br)ccc2C1: > 80%
- COCCOCCOc1cc2ncnc3c2cc1OCCCCCN(C)Cc1ccc(Br)cc1N3: > 80%
- CN1CCCCCOc2cc3c(ncnc3cc2OCCCN2CCS(=O)(=O)CC2)Nc2cc(Cl)c(F)cc2C1: > 80%
- COc1cc2ncnc3c2cc1OCCN(CCN1CCOCC1)C(=O)CNC(=O)Cc1ccc(Cl)cc1N3: 60 to 80%

* * *

# Study target: Blk (m) (Mus musculus)
# Sequence (P16277 whole entry): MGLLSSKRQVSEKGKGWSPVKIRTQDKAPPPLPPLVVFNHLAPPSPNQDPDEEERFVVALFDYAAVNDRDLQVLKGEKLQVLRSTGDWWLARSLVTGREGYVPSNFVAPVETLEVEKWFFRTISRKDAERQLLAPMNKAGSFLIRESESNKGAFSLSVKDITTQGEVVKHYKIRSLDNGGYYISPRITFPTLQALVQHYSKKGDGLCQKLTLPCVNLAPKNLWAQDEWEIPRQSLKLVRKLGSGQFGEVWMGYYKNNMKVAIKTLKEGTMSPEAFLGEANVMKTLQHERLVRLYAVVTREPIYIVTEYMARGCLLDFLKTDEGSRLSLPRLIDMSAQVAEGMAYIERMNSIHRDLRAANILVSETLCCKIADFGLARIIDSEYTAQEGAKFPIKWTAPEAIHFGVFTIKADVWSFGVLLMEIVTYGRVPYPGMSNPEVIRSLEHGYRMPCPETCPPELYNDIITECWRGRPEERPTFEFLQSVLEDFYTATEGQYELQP
# Protocol details: Kinase profiling, glass-fiber filter technology: Blk
# Format: biochemical
# Experimental context: test concentration of 10^−6 M; read-out: Blkl inhibition score
Experimental endpoint: inhibition at 1 µM

- CN1CCCCCOc2cc3c(ncnc3cc2OC[C@@H](O)CN2CCS(=O)(=O)CC2)Nc2cc(Br)ccc2C1: > 80%
- CN1CCCCCOc2cc3c(ncnc3cc2OCCCNC(=O)OC(C)(C)C)Nc2cc(Br)ccc2C1: 30 to 60%
- COCCOCCOc1cc2ncnc3c2cc1OCCCCCN(C)Cc1ccc(Br)cc1N3: 60 to 80%
- CC(=O)NCCNCCCOc1cc2ncnc3c2cc1OCCCNC(=O)[C@H](C)N(C)Cc1cc(F)c(Cl)cc1N3: > 80%
- COc1cc2ncnc3c2cc1OCCCN(CCCN1CCOCC1)C(=O)[C@H](CC(C)C)NC(=O)Cc1ccc(Br)cc1N3: 30 to 60%
- CN1CCCCCOc2cc3c(ncnc3cc2OCCCNCCS(C)(=O)=O)Nc2cc(Br)ccc2C1: > 80%
- COc1cc2ncnc3c2cc1OCCCN(CCN1CCOCC1)C(=O)CNC(=O)Cc1ccc(Cl)cc1N3: 30 to 60%
- C[C@H]1C(=O)NCCCOc2cc3c(ncnc3cc2OCCCN2CCN(C(=O)OC(C)(C)C)CC2)Nc2cc(Cl)c(F)cc2CN1C: > 80%
- C#Cc1ccc2c(c1)Nc1ncnc3cc(OCCCNCCS(C)(=O)=O)c(cc13)OCCCCCN(C)C2: > 80%
- CC(=O)NCCNCCCOc1cc2ncnc3c2cc1OCCCCCN(C)Cc1ccc(Br)cc1N3: > 80%
